These entries and their values trace back to PubChem BioAssay (NCI).

Test system: UO-31 renal
EXPERIMENTAL_DETAILS: NCI tumour cell line growth inhibition, 48 h
READOUT_KIND: TGI (µM)
Respond numerically; units are µM and should not be typed.

COc1ccc(/C=C\[N+](=O)[O-])cc1OC; 3.87

Proceeding to the next compound to report its TGI.
Looking for the measured TGI of `C/C=C(\C)C(=O)O[C@H]1C=CC(=O)O[C@H]1CCC(=O)[C@H](C)O` , can you help?
31.2

====

Test system: CAKI-1 renal
EXPERIMENTAL_DETAILS: NCI tumour cell line growth inhibition, 48 h
Starred links: 1 amine or outer side, 2 acyl side, 3 side chain; linkers in the order of their positions; H or OH if unused. Positions of bridges follow the written chain, without caps; N, C: chain ends. Where a SMILES comes first, the peptide text is derived from it. Non-standard residues stand in square brackets, D forms with d. Residues, ends and D or L forms follow the SMILES beside them. Chains are numbered I, II in the order given. The star is where a group is joined. Actinocin(9to1) = Cc1c2oc3c(C)ccc(C(=O)[*:1])c3nc-2c(C(=O)[*:2])c(N)c1=O; NMeY = CN[CH](Cc1ccc(O)cc1)C(=O)O; Boc = CC(C)(C)OC(=O)*; Bn = c1ccc(C*)cc1; Sar = CNCC(=O)O
molecules and their reported TGI

Please review the entries below; each comes with its answer.
Nc1nn2cc(F)cnc2c1C(=O)Nc1cncc(F)c1N1CCC(C(=O)N2CCN(C3COC3)CC2)CC1; 3.16 µM
O=c1[nH]nnc2c1sc1ncccc12; > 100 µM
Cc1c2oc3c(C)ccc(C(=O)NC4C(=O)NC(C(C)C)C(=O)N5CCCC5C(=O)N(C)CC(=O)N(C)C(Cc5ccc(O)cc5)C(=O)OC4C)c3nc-2c(C(=O)NC2C(=O)NC(C(C)C)C(=O)N3CCCC3C(=O)N(C)CC(=O)N(C)C(Cc3ccc(O)cc3)C(=O)OC2C)c(N)c1=O (configuration not stated) (I: TVP[Sar][NMeY] / II: TVP[Sar][NMeY]; ester I:1-I:C, II:1-II:C; linker I:N-II:N via Actinocin(9to1); configuration not given here); > 1 µM
COC(=O)C(CC(C)C)NC(=O)C(C)NC(=O)C(Cc1ccc(OCc2ccccc2)cc1)NC(=O)C(COCc1ccccc1)NC(=O)OC(C)(C)C (configuration not stated) (Boc-S(Bn)Y(Bn)AL-OMe; configuration not given here); > 100 µM
Nc1c(C(=O)O)nnc2ccc(Cl)cc12; > 100 µM
CC(C)(C)NNC(=O)CCn1[nH]c(=O)c(Cl)c(Cl)c1=O; > 100 µM

With those in mind, consider the next molecule.
Quick one: TGI for `O=c1oc2ccc3ccccc3c2cc1-c1nc2ccccc2s1` ?
> 100 µM

====

Test system: RXF 393 renal
EXPERIMENTAL_DETAILS: NCI tumour cell line growth inhibition, 48 h
READOUT_KIND: TGI (µM)
Express the result in µM but write the number alone.

CCN1CCN(C(=O)[C@@]2(C)CC[C@]3(C)CC[C@]4(C)C(=CC(=O)[C@@H]5[C@@]6(C)CC[C@H](OC7C[C@@H](O)[C@@H](O)C(C)O7)C(C)(C)[C@@H]6CC[C@]54C)[C@@H]3C2)CC1 (stereo partly drawn); 11.5

What reported TGI corresponds to CCN(CC)CCC(CNc1ccnc2cc(Cl)ccc12)c1ccc(Cl)cc1 (stereo not drawn) on RXF 393 renal?
2.32

Enter reported TGI observed with RXF 393 renal for `Cn1c(I)c(C#CCO[Si](C)(C)C(C)(C)C)c(=O)[nH]c1=O`
34.3

What is its TGI for RXF 393 renal? Entry: `CNCc1ccccc1-c1csc([C@@H](C)Nc2nc(C)nc3cc(OC)c(OC)cc23)c1`
2.84

====

System: SK-OV-3 ovarian
EXPERIMENTAL_DETAILS: NCI tumour cell line growth inhibition, 48 h
READOUT_KIND: TGI (µM)
Output spec: scalar in µM, unitless text.

COc1ccc(OC)c2c1[nH]c(=O)c1c3ccccc3cn21; 2.97

Given the molecule CC1(C)COC(C2(C)C(=O)C=C(c3ccccc3)c3ccccc32)=N1 (stereo not given) , what is its reported TGI?
47.9

Fill in: TGI of `CC(=O)N=C1N(/C=C2\C(=O)Oc3ccccc3C2=O)C(=O)/C(=C/c2cccc(Cl)c2Cl)N1C` is ___
39.4

====

Tested on: HT29 colon
EXPERIMENTAL_DETAILS: NCI tumour cell line growth inhibition, 48 h
READOUT_KIND: TGI

# count of solved cases: 2
CCCNC(=O)NNC(=O)c1c[nH]c2nc(C)ccc2c1=O; > 100 µM
COc1ccc(OC)c2c1[nH]c(=O)c1c3ccccc3cn21; 2.54 µM

Sample `CC(=O)c1ccccc1NP(=O)(c1ccccc1)c1ccccc1` — what was its TGI?
> 100 µM

====

Tested on: ACHN renal
EXPERIMENTAL_DETAILS: NCI tumour cell line growth inhibition, 48 h
Each item that follows carries a reported TGI.

Example entries and their recorded answers appear below.
CC1=NN(c2nc(N)nc(/C(C#N)=C\c3ccc([N+](=O)[O-])s3)n2)C(C)(C)C1; 0.719 µM
O=C1CCC(Cl)=CC2CCCN12 (configuration not stated); > 100 µM
O=C1c2cccc3c2C(=O)c2c(cccc21)OCCOCCOCCOCCO3; > 100 µM
CCCNC(=O)NNC(=O)c1c[nH]c2nc(C)ccc2c1=O; > 100 µM
COc1cc(Nc2nc3ccccc3nc2C(=O)O)cc(OC)c1OC; > 100 µM
Oc1ccc(Nc2ncnc3c2sc2ncccc23)cc1; 1.42 µM

Which TGI is listed for `COc1ccccc1/C=N\N/C(N)=N\N=C\c1ccccc1OC` ?
> 53.1 µM

====

Test system: LOX IMVI melanoma
EXPERIMENTAL_DETAILS: NCI tumour cell line growth inhibition, 48 h
READOUT_KIND: TGI (µM)
I only need the number, in µM, no unit after it.

Consider the reported TGI for these compounds:
O=C1C=CC(=O)c2c1ccc1c3ccccc3n(CCCCCn3c4ccccc4c4ccc5c(c43)C(=O)C=CC5=O)c21; 35
CSc1nc(=O)n(CCC#N)nc1SC; 43.5
NC(=O)/C=C/C(=O)c1c(Cl)cccc1Cl; 2.16

Request the reported TGI associated with `CC(=O)OC(OC(C)=O)c1ccc2ccc3cccc4ccc1c2c34`
36

====

System: MDA-MB-435
EXPERIMENTAL_DETAILS: NCI tumour cell line growth inhibition, 48 h
READOUT_KIND: TGI (µM)
Please respond with the number in µM and leave the unit unwritten.

Worked set:
COc1cc(-c2oc(=O)ccc2C#Cc2ccccn2)cc(OC)c1OC; 0.932
COc1cccc(C2c3cc4c(cc3OC(N3CCCCC3)C2C)OCO4)c1O (stereo not given); 6.82
Fc1ccc2c(c1)nc1n2C(c2c(Cl)cccc2Cl)SC1 (stereo not given); 25
CCN1CCN(C(=O)[C@@]2(C)CC[C@]3(C)CC[C@]4(C)C(=CC(=O)[C@@H]5[C@@]6(C)CC[C@H](OC7C[C@@H](O)[C@@H](O)C(C)O7)C(C)(C)[C@@H]6CC[C@]54C)[C@@H]3C2)CC1 (stereo not given in full); 8.19

Shifting focus to the compound that follows.
Sample `NC(N)=N/N=C/c1c(-c2ccsc2)nc2sccn12` — what was its TGI?
27.7

====

Catalogue of compounds with associated TGI
System: MDA-MB-435
EXPERIMENTAL_DETAILS: NCI tumour cell line growth inhibition, 48 h

CCOC(=O)c1ccc(NC(=O)Oc2ccc3c(C)cc(=O)oc3c2)cc1; > 100 µM
COC(=O)COc1ccccc1/C=C1\N=C(c2ccccc2)N(c2cc(C(F)(F)F)ccc2Cl)C1=O; > 100 µM
CCOC(=O)NC(Nc1ccc(C)cc1)(C(F)(F)F)C(F)(F)F; > 100 µM

Quick check: TGI of `CC1=NN(c2nc(N)nc(/C(C#N)=C\c3ccc([N+](=O)[O-])s3)n2)C(C)(C)C1` ?
0.405 µM

Please give the measured TGI for this compound: Cc1ccc2c(c1)C(=S)N1CSCC1c1nncn1-2 (centres undefined)
> 100 µM

Sample `CCn1c(-c2ccccc2)cs/c1=N\C(P(=O)(O)O)P(=O)(O)O` — what was its TGI?
> 100 µM

Would you kindly share the measured TGI for `COc1ccc(/C=C\[N+](=O)[O-])cc1OC` ?
9.38 µM

Which measured TGI value corresponds to `O=C1C=CC(=O)c2c1ccc1c3ccccc3n(CCCCCn3c4ccccc4c4ccc5c(c43)C(=O)C=CC5=O)c21` ?
46.3 µM

Any idea what its TGI is? The compound is COC(=O)C1=C(OC(=O)/C(=C/c2ccc(Cl)cc2)c2ccc(Cl)cc2)C(C(=O)OC)[C@@]2(O)[C@@H](C(=O)OC)[C@H](C)C[C@@H]1[C@@H]2C(=O)OC (some centres undefined)
> 100 µM
